Test system: primary mouse cortical neurons
Construct: primary cortical neurons, DIV 10
Assay: cells
Parameters: Protection from NMDA-induced (30 uM, 10 min) neuronal death; Hoechst nuclear morphology by automated microscopy
Settings: Cortical neurone, 20 h, read-out: % inhibition, inhibition of NMDA-induced cell death (protection score), 30 min pre-treatment
Description: On DIV 10, compounds were applied to the cells reaching an end concentration of 10 μM. Cells were incubated for 30 min at 37 °C, 5% CO2 before adding NMDA (30 μM). Cells were incubated for another 10 min in the incubator, then washed twice with defined minimal medium containing 10 μM of the respective compound and incubated for an additional 20 h before readout. […] The survival rate S was calculated by dividing the number of living cells by the total number of cells. […]
Counter-ions that a name gives are not always drawn.
observation-type: inhibition at 10 µM (%)
One number for each entry, in %.

Study these solved cases before continuing.
compound	target-under-test	inhibition at 10 µM, %
CNC(=C[N+](=O)[O-])NCCSCc1csc(CN(C)C)n1	primary mouse cortical neurons	-2.67
CCC[C@@H]1C[C@@H](C(=O)N[C@@H]([C@H]2O[C@H](SC)[C@H](O)[C@@H](O)[C@H]2O)[C@@H](C)O)N(C)C1 [Lincomycin hydrochloride (Lincocin)]	primary mouse cortical neurons	-7.87
C[C@]12CC[C@@H]3c4ccc(O)cc4CC[C@H]3[C@@H]1CCC2=O	primary mouse cortical neurons	-2.18
C=C1CC[C@@H]2[C@](C)(CO)[C@H](O)CC[C@@]2(C)[C@@H]1C/C=C1/C(=O)OC[C@H]1O [Andrographolide]	primary mouse cortical neurons	-4.01
O=C1CCC(N2C(=O)c3ccccc3C2=O)C(=O)N1 (centres unmarked) [Thalidomide]	primary mouse cortical neurons	-3.3
COc1c(N2CCNC(C)C2)c(F)cc2c(=O)c(C(=O)O)cn(C3CC3)c12 (centres unmarked)	primary mouse cortical neurons	-10.3
C[C@]12CCC(=O)C=C1[C@@H]1C[C@@H]1[C@H]1[C@@H]3[C@@H]4C[C@@H]4[C@@]4(CCC(=O)O4)[C@@]3(C)CC[C@@H]12	primary mouse cortical neurons	-0.385

Now turn to the next compound.
inhibition at 10 µM measured on CC[C@@]1(O)C(=O)OCc2c1cc1n(c2=O)Cc2cc3c(CN(C)C)c(O)ccc3nc2-1 [Topotecan HCl] = -1.54
